target: Cannabinoid receptor 1 (Rattus norvegicus); experiment: […] [35S]GTP-gamma-S from rat cerebellar CB1 receptor
Entries and their measured pEC50 follow.
Hey, just a heads up that pEC50 is the negative log base 10 of the concentration in molar.

Answered examples (5):
MOLECULE	SYSTEM	pEC50
CCCCCCC(C)(C)/C=C\C/C=C\C/C=C\C/C=C\CCC(=O)OC(CO)CO	Cannabinoid receptor 1 (Rattus norvegicus)	4.30
CCCCCCC(C)(C)c1cc(O)c2c(c1)OC(C)(C)[C@@H]1CC=C(CO)C[C@@H]21	Cannabinoid receptor 1 (Rattus norvegicus)	8.30
CCCCC/C=C\C/C=C\C/C=C\C/C=C\CCCNC(=O)CCC	Cannabinoid receptor 1 (Rattus norvegicus)	5.90
CCCCC/C=C\C/C=C\C/C=C\C/C=C\CCCC(=O)C(F)(F)F [ARACHIDONYL TRIFLUOROMETHYLKETONE]	Cannabinoid receptor 1 (Rattus norvegicus)	4.60
CCCCCc1cc(O)c2c(c1)OC(C)(C)c1ccc(C)cc1-2 [CANNABINOL]	Cannabinoid receptor 1 (Rattus norvegicus)	6.50

Recall the recorded pEC50 for CCCCC/C=C\C/C=C\C/C=C\C/C=C\CCCCNC(=O)CCC with Cannabinoid receptor 1 (Rattus norvegicus) and state it. 5.50

----------
target: Cannabinoid receptor 1 (Rattus norvegicus); assay: […] [35S]GTP-gamma-S from rat cerebellar CB1 receptor; format: functional; details: Wistar
Quick rule for you: Emax at 300% or higher means 1 (yes), lower means 0 (no).

ITEM_SMILES	ASSIGNED_CLASS
CCCCCCC(C)(C)/C=C\C/C=C\C/C=C\C/C=C\CCCC(=O)OC(CO)CO	1 (yes)

Please check the record CCCCCCC(C)(C)/C=C\C/C=C\C/C=C\C/C=C\CCC(=O)OC(CO)CO and state if its Emax is at or above 300%. 1 (yes)

In plain terms: is recorded Emax at least 300% for CC1=CC[C@@H]2[C@@H](C1)c1c(O)cc(C(C)(C)CCCCC#N)cc1OC2(C)C ? 1 (yes)

For this compound, is measured Emax 300% or higher? CCCCC/C=C\C/C=C\C/C=C\C/C=C\CCCC(=O)NCCCl 1 (yes)

----------
molecular target: Cannabinoid receptor 1 (Rattus norvegicus) (UniProt P20272); experiment: […] [35S]GTP-gamma-S from rat cerebellar CB1 receptor; assay type: functional; details: Wistar
Sequence (P20272 whole entry): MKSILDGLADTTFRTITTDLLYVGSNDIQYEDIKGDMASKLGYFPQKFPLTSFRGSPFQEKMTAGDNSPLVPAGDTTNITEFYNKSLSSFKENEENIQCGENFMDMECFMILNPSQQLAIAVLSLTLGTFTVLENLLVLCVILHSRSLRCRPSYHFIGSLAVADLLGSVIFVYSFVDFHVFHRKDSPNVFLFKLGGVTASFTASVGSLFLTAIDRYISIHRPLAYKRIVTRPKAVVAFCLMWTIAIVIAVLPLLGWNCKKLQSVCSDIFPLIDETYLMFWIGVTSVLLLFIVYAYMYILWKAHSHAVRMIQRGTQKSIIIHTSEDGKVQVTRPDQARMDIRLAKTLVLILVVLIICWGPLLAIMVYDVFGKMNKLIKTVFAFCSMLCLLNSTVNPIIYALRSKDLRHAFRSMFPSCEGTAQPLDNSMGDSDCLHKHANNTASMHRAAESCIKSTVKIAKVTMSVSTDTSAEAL
OUTCOME_MEASURE: Emax
Include the unit right after the number.

Below: 4 molecules and their reported Emax.
MOLECULE	Emax
CCCCCc1cc(O)c2c(c1)OC(C)(C)[C@@H]1CC=C(C)C[C@@H]21 [DELTA-8-TETRAHYDROCANNABINOL]	184%
CCCCC/C=C\C/C=C\C/C=C\C/C=C\CCCCNC(=O)CCC	199%
CCCCCCC(C)(C)c1cc(O)c2c(c1)OC(C)(C)[C@@H]1CC=C(CO)C[C@@H]21	396%
CCCCCc1cc(O)c2c(c1)OC(C)(C)[C@@H]1CCC(C)=C[C@@H]21	159%

// query Emax value for entry CCCCC/C=C\C/C=C\C/C=C\C/C=C\CCCCOC(=O)[C@H](O)CO 255%

----------
target: Cannabinoid receptor 1 (Rattus norvegicus, UniProt P20272); experiment: […] [35S]GTP-gamma-S from rat cerebellar CB1 receptor
pEC50: −log10 of the molar value.
Quick rule for you: pEC50 at 6 or higher means 1, lower means 0.

Here are 3 compounds together with their reported answers.
ITEM_SMILES	ASSIGNED_CLASS
CC1=CC[C@@H]2[C@@H](C1)c1c(O)cc(C(C)(C)CCCCC#N)cc1OC2(C)C	1
CCCC(C)(C)c1ccc2c(c1)OC(C)(C)[C@@H]1CC=C(C)C[C@@H]21	0
CCCCC/C=C\C/C=C\C/C=C\C/C=C\CCCCNC(=O)CC	0

Tell me whether pEC50 is at least 6 here: CCCCC/C=C\C/C=C\C/C=C\C/C=C\CCCCNC(=O)CCO 0

Is pEC50 for CC1=CC[C@@H]2[C@@H](C1)c1c(O)cc(C(C)(C)CCCCBr)cc1OC2(C)C at or above 6? 1

Check this compound for pEC50 at or above 6: CCCCC/C=C\C/C=C\C/C=C\C/C=C\CCCC(=O)NCCCl 1
